tested on: lung adenocarcinoma (A549) cells; experiment: MTT proliferation assay, A549 cells; format: cell-based, human; settings: Homo sapiens, A549, 72 h incubation
PROPERTY_LABEL: log10 of IC50 (log10 of the value in µM)
log10 IC50, µM

Consider the following illustrative entries.
>  <COMPOUND>
c1nc(N2CCCCC2)c2ncn(CCn3cc(COc4ccc(-c5ccc(OCc6cn(CCn7cnc8c(N9CCCCC9)ncnc87)nn6)cc5)cc4)nn3)c2n1

>  <log10 of IC50>
1.09

$$$$
>  <COMPOUND>
Clc1ncnc2c1ccn2CCn1cc(COc2ccc(-c3ccc(OCc4cn(CCn5ccc6c(Cl)ncnc65)nn4)cc3)cc2)nn1

>  <log10 of IC50>
0.80

$$$$
>  <COMPOUND>
c1nc(N2CCCCC2)c2ncn(CCn3cc(COc4ccc(OCc5cn(CCn6cnc7c(N8CCCCC8)ncnc76)nn5)cc4)nn3)c2n1

>  <log10 of IC50>
1.73

$$$$
>  <COMPOUND>
c1nc(N2CCCC2)c2ncn(CCn3cc(COc4ccc(OCc5cn(CCn6cnc7c(N8CCCC8)ncnc76)nn5)cc4)nn3)c2n1 [10a]

>  <log10 of IC50>
1.98

$$$$
>  <COMPOUND>
C#CCOc1ccc(OCc2cn(CCn3cnc4c(N5CCCCC5)ncnc43)nn2)cc1

>  <log10 of IC50>
1.77

$$$$

# query: log10 of IC50 | item "c1nc(N2CCCCC2)c2ccn(CCn3cc(CCCc4cn(CCn5ccc6c(N7CCCCC7)ncnc65)nn4)nn3)c2n1" | system: lung adenocarcinoma (A549) cells
1.77

Query for lung adenocarcinoma (A549) cells: what log10 of IC50 does the record show for "c1nc(N2CCCC2)c2ccn(CCn3cc(COc4ccc(-c5ccc(OCc6cn(CCn7ccc8c(N9CCCC9)ncnc87)nn6)cc5)cc4)nn3)c2n1" ?
1.84

----------
tested on: metastatic colorectal adenocarcinoma (SW620) cells; experiment: MTT proliferation assay, SW620 cells; format: cell-based, human; details: Homo sapiens, SW-620, 72 h incubation
PROPERTY_LABEL: pIC50
# pIC50: negative log10 of molar concentration; output just the value

# annotated cases, reported pIC50 shown
>  <COMPOUND>
c1nc(N2CCCCC2)c2ccn(CCn3cc(COc4ccc(-c5ccc(OCc6cn(CCn7ccc8c(N9CCCCC9)ncnc87)nn6)cc5)cc4)nn3)c2n1

>  <MEASURED_TARGET>
metastatic colorectal adenocarcinoma (SW620) cells

>  <pIC50>
4.61

$$$$
>  <COMPOUND>
c1nc(N2CCCC2)c2ncn(CCn3cc(COc4ccc(OCc5cn(CCn6cnc7c(N8CCCC8)ncnc76)nn5)cc4)nn3)c2n1 [10a]

>  <MEASURED_TARGET>
metastatic colorectal adenocarcinoma (SW620) cells

>  <pIC50>
4.01

$$$$

Consider the additional compound presented here.
What value of pIC50 has been recorded for this entry: "C#CCOc1ccc(-c2ccc(OCc3cn(CCn4cnc5c(N6CCCCC6)ncnc54)nn3)cc2)cc1"
4.63

----------
system: lung adenocarcinoma (A549) cells; assay: MTT proliferation assay, A549 cells; assay type: cell-based, human; details: Homo sapiens, A549, 72 h incubation
PROPERTY_LABEL: log10 IC50 (log10 of the value in µM)
Response schema: value (number) is log10 of IC50 in units of µM.

>  <STRUCTURE_STRING>
Clc1ncnc2c1ccn2CCn1cc(CCCc2cn(CCn3ccc4c(Cl)ncnc43)nn2)nn1

>  <MEASURED_TARGET>
lung adenocarcinoma (A549) cells

>  <log10 IC50>
2.00

$$$$

Query: log10 IC50; subject: "c1nc(N2CCCC2)c2ccn(CCn3cc(COc4ccc(OCc5cn(CCn6ccc7c(N8CCCC8)ncnc76)nn5)cc4)nn3)c2n1"
1.69

May I ask what log10 IC50 has been recorded for "c1nc(N2CCCCC2)c2ccn(CCn3cc(COc4ccc(-c5ccc(OCc6cn(CCn7ccc8c(N9CCCCC9)ncnc87)nn6)cc5)cc4)nn3)c2n1" ?
1.73

// lookup log10 IC50 for "C#CCOc1ccc(-c2ccc(OCc3cn(CCn4cnc5c(N6CCCCC6)ncnc54)nn3)cc2)cc1"
0.97

Record request: log10 IC50 value, item "C#CCOc1ccc(-c2ccc(OCc3cn(CCn4ccc5c(Cl)ncnc54)nn3)cc2)cc1"
0.84
